Test system: PANC-1
Experiment Description: Antiproliferative activity against human PANC1 cells after 72 hrs by CellTiter-Glo assay
Format: functional, cell-based
Reported Conditions: PANC-1, 72 h
Readout: IC50 (µM)
Kindly provide the numeric value in µM only, without the unit symbol.

IC50 value, target or system PANC-1, for `CN1CCN(c2ccc(OC(F)(F)F)c(Nc3ncc4c(n3)-c3c(c(C(N)=O)nn3C)CC4)c2)CC1` : 0.126

---

Observed IC50 values for Serine/threonine-protein kinase PLK1 (Homo sapiens) are listed in what follows.
Kindly provide the numeric value in nM only, without the unit symbol.

Example results:
Cn1nc(C(N)=O)c2c1-c1nc(Nc3cc(N4CCC(N5CCCC5)CC4)ccc3OC(F)(F)F)ncc1CC2 | 33
CN1CCCN(c2ccc(OC(F)(F)F)c(Nc3ncc4c(n3)-c3c(c(C(N)=O)nn3C)CC4)c2)CC1 | 25
CCn1nc(C(N)=O)c2c1-c1nc(Nc3cc(N4CCN(C)CC4)ccc3OC(F)(F)F)ncc1CC2 | 6
CN1C(C)(C)CC(Nc2ccc(OC(F)(F)F)c(Nc3ncc4c(n3)-c3c(c(C(N)=O)nn3C)CC4)c2)CC1(C)C | 964
CN1CCN(c2ccc(OC(F)(F)F)c(Nc3ncc4c(n3)-c3c(c(C(N)=O)nn3CCF)CC4)c2)CC1 | 4

IC50 value, target or system Serine/threonine-protein kinase PLK1 (Homo sapiens), for `Cn1nc(C(N)=O)c2c1-c1nc(Nc3ccccc3OC(F)(F)F)ncc1CC2` : 117

---

Experiment Description: Inhibition of PDGFR
Readout: IC50

Example results:
CN1CCN(c2ccc(OC(F)(F)F)c(Nc3ncc4c(n3)-c3c(c(C(N)=O)nn3CCF)CC4)c2)CC1 | > 10 µM
C=Cn1nc(C(N)=O)c2c1-c1nc(Nc3cc(N4CCN(C)CC4)ccc3OC(F)(F)F)ncc1CC2 | 1.46 µM
Cn1nc(C(N)=O)c2c1-c1nc(Nc3cc(N4CCNCC4)ccc3OC(F)(F)F)ncc1CC2 | > 10 µM

In the following, a different molecule is considered.
Recorded result, `CN1CCN(c2ccc(OC(F)(F)F)c(Nc3ncc4c(n3)-c3c(c(C(N)=O)nn3C)CC4)c2)CC1` , IC50: > 10 µM

---

Study System: Serine/threonine-protein kinase Nek6 (Homo sapiens)
Sequence (Q9HC98 whole entry): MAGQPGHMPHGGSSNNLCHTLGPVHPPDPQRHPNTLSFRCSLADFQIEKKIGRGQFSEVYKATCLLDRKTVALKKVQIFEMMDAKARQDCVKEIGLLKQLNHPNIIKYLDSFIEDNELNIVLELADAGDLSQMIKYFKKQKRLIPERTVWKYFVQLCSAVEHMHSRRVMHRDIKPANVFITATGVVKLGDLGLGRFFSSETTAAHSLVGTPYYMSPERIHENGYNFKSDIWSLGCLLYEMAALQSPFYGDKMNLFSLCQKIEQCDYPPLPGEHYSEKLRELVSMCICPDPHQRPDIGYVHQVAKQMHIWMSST
Experiment Description: Inhibition of NEK6
Below, each of the compounds is paired with its reported pIC50 value.
Scale explanation: pIC50 corresponds to minus log10 of a concentration expressed in moles per litre.

Recorded result, `C=Cn1nc(C(N)=O)c2c1-c1nc(Nc3cc(N4CCN(C)CC4)ccc3OC(F)(F)F)ncc1CC2` , pIC50: 6.47

Recorded result, `CN1CCN(c2ccc(OC(F)(F)F)c(Nc3ncc4c(n3)-c3c(c(C(N)=O)nn3C)CC4)c2)CC1` , pIC50: 5.78

Recorded result, `Cn1nc(C(N)=O)c2c1-c1nc(Nc3cc(N4CCNCC4)ccc3OC(F)(F)F)ncc1CC2` , pIC50: 6.23

---

Study System: Receptor-type tyrosine-protein kinase FLT3 (Homo sapiens, UniProt P36888)
Sequence (P36888 whole entry): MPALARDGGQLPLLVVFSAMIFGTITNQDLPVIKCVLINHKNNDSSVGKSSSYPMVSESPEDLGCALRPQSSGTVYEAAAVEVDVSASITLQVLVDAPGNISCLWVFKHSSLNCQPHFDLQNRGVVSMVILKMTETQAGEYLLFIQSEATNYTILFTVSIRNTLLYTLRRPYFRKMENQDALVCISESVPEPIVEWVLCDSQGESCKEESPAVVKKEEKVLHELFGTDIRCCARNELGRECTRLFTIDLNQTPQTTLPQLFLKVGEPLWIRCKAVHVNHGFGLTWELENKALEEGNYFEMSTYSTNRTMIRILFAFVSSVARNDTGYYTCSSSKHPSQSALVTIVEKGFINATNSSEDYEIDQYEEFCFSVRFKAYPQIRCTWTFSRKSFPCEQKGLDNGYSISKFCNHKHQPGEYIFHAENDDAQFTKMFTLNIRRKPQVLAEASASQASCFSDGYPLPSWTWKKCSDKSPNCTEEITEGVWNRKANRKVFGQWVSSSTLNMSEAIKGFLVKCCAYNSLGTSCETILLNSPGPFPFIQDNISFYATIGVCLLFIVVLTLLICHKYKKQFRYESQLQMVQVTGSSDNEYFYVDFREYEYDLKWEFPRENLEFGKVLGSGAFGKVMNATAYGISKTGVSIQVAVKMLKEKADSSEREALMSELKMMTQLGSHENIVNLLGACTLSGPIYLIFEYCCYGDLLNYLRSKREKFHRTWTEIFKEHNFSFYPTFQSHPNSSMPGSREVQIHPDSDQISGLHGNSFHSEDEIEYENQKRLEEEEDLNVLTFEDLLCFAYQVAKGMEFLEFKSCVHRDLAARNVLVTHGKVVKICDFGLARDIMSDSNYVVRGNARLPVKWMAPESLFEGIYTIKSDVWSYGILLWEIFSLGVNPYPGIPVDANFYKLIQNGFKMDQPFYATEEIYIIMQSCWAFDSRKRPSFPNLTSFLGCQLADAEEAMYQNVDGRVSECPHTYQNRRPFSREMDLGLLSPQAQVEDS
Below, each of the compounds is paired with its reported IC50 value.
Kindly provide the numeric value in nM only, without the unit symbol.

Example results:
CN1CCN(c2ccc(OC(F)(F)F)c(Nc3ncc4c(n3)-c3c(c(C(N)=O)nn3C)CC4)c2)CC1 | 1520
Cn1nc(C(N)=O)c2c1-c1nc(Nc3cc(N4CCNCC4)ccc3OC(F)(F)F)ncc1CC2 | 194
C=Cn1nc(C(N)=O)c2c1-c1nc(Nc3cc(N4CCN(C)CC4)ccc3OC(F)(F)F)ncc1CC2 | 226

Recorded result, `CN1CCN(c2ccc(OC(F)(F)F)c(Nc3ncc4c(n3)-c3c(c(C(N)=O)nn3CCF)CC4)c2)CC1` , IC50: 216

Data origin, for the record: ChEMBL document CHEMBL1268971
